# Measurement Target: human glucagon receptor (human, UniProt P47871 26-477)
# Sequence (P47871 26-477): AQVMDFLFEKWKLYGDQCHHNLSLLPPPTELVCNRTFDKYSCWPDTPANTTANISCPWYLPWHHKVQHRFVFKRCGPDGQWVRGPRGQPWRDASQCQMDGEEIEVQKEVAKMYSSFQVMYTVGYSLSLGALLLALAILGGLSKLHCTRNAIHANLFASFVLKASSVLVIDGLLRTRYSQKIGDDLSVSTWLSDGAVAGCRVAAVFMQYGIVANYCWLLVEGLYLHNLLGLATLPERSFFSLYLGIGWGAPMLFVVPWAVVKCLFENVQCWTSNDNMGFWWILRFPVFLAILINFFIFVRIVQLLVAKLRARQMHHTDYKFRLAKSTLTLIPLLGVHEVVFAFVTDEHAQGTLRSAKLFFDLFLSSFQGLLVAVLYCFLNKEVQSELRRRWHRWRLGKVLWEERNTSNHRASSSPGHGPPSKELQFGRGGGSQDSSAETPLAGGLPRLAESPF
# Experimental Details: cell-based or functional assay
Bridge positions count the residues as written; N and C are the ends. Square brackets hold non-standard residues; d marks the D form. Ends that are not written are not given here. Aib = CC(C)(N)C(=O)O
Assign In vitro Activity (relative activity to SEQ ID NO: 1, %); cAMP assay, from EC50 to each entry below.
Answers are plain numbers, in %.

{"columns": ["Binder", "Observed Measurement"],
 "data": [
  ["Y[Aib]QGTFTSDYSKYLDCKRAKEFVQWLMNT (lactam 17-21) [glucagon derivative of SEQ ID NO: 31]", 6.3],
  ["Y[Aib]QGTFTSDYSCYLDEKRAKEFVQWLMNT [glucagon derivative of SEQ ID NO: 45]", 5.2]
]}

Turning now to a further record.
Query: Answer with reported In vitro Activity (relative activity to SEQ ID NO: 1, %); cAMP assay, from EC50 of YXQGTFTSDYSKYLDSRRAQDFVQWLMNTC (X at position 2 = aminoisobutyric acid (Aib)) [glucagon derivative of SEQ ID NO: 44]
Reply: 75.4
